assay: xn = mol fraction of the nth substance listed, in the solute-free solvent; conditions: 293.15 K; x2 = 0.06974
measured_attribute: solubility (g/100 g solution)

>  <compound>
COC(=O)C1=C(C)NC(C)=C(C(=O)OCC(C)C)C1c1ccccc1[N+](=O)[O-] (stereo not given) + CC(C)O + O

>  <solubility (g/100 g solution)>
1.25

$$$$
>  <compound>
O=[N+]([O-])c1cc[nH]n1 + CCCO + O

>  <solubility (g/100 g solution)>
0.489

$$$$
>  <compound>
COC(=O)C1=C(C)NC(C)=C(C(=O)OCC(C)C)C1c1ccccc1[N+](=O)[O-] (stereo not given) + CCCO + O

>  <solubility (g/100 g solution)>
0.96

$$$$

I. CC(=O)Nc1ccc(OC(=O)c2ccccc2OC(C)=O)cc1 + CC(C)O + O
II. CS(=O)(=O)c1ccc(C(O)C(CF)NC(=O)C(Cl)Cl)cc1 (stereo not given) + CC(C)O + O
Between I and II , which one shows the larger solubility (g/100 g solution) value? Reply briefly: the label of your chosen item.
II
